Molecular target: Streptavidin (SA) (Streptomyces avidinii)
Construct: purchased
Sequence (P22629 25-183, species assumed): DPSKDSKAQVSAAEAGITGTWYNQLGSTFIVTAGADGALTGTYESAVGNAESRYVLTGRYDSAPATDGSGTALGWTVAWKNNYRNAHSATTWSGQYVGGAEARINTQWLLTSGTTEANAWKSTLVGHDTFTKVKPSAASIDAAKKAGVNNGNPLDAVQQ
Assay: SPR, soluble compound binding to immobilized streptavidin
Conditions: supplementary CSV, solution dissociation constants; read-out: KD for SA
READOUT_LABEL: Kd (µM)
The figure you give is taken to be in µM; do not add the unit.

Prompt: Given the entry CN(CC(=O)NCCOCCOCC(=O)NCC(N)=O)C(=O)c1csc(CN(Cc2cccnc2)C(=O)c2ccc(F)c(C#N)c2)n1 [Compound 5] , report its measured Kd.
Completion: 160

* * *

Molecular target: Rpn13 PRU (Homo sapiens)
Construct: FLAG (N); His10 (C); made in house; host or cells: E. coli BL21 (DE3) codon plus RP
Experiment: SPR, soluble compound binding to biotinylated Rpn13 PRU captured on SA chip
Conditions: soluble compound, biotinylated Rpn13 PRU immobilized on SA chip; read-out: KD (SPR)
READOUT_LABEL: Kd

Prompt: Given the entry NC(=O)CNC(=O)COCCOCCNC(=O)CNC(=O)c1cnc2[nH]ccc2c1 , report its measured Kd.
Completion: > 2000 µM

* * *

Molecular target: Streptavidin (SA) (Streptomyces avidinii)
Construct: purchased
Test: SPR, soluble compound binding to immobilized streptavidin
Conditions: soluble mini-PEG attached compound, immobilized SA; read-out: KD (SPR)
Below, each of the molecules is paired with its reported pKd value.
In plain terms, pKd is the concentration in mol/L turned into minus its base-10 logarithm.

Worked examples, 3 molecules total:
CN(CC(=O)NCCOCCOCC(=O)NCC(N)=O)C(=O)c1csc(CN(Cc2cccnc2)C(=O)c2ccc3[nH]ccc3c2)n1 :: 3.11
CN(CC(=O)NCCOCCOCC(=O)NCC(N)=O)C(=O)c1csc(CN(Cc2cccnc2)C(=O)C2CCC(=O)C2)n1 (stereo not shown) :: 4.05
CC(=O)N(Cc1cccnc1)Cc1nc(C(=O)N(C)CC(=O)NCCOCCOCC(=O)NCC(N)=O)cs1 :: 3.15

Prompt: Given the entry CN(CC(=O)NCCOCCOCC(=O)NCC(N)=O)C(=O)c1csc(CN(Cc2cccnc2)C(=O)c2ccc(F)c(F)c2)n1 , report its measured pKd.
Completion: 3.48

* * *

Target: Rpn13 PRU (Homo sapiens, UniProt Q16186)
Construct: FLAG (N); His10 (C); made in house; host or cells: E. coli BL21 (DE3) codon plus RP
Sequence (Q16186 18-131 limits assumed): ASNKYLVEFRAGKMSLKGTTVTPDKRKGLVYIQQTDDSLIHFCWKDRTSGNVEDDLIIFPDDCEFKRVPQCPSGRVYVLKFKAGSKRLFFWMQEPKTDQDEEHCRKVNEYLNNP
Assay: SPR, soluble compound binding to biotinylated Rpn13 PRU captured on SA chip
Conditions: supplementary CSV, solution dissociation constants; read-out: KD for Rpn13 PRU
pKd: −log10 of the molar value.
READOUT_LABEL: pKd

Prompt: Given the entry NC(=O)CNC(=O)COCCOCCNC(=O)CNC(=O)c1ccc2nc(-c3ccncc3)[nH]c2c1 , report its measured pKd.
Completion: < 2.70
